Reported IC50 by item:
tgt: D(2) dopamine receptor (Rattus norvegicus, UniProt P61169)
Sequence (P61169 whole entry): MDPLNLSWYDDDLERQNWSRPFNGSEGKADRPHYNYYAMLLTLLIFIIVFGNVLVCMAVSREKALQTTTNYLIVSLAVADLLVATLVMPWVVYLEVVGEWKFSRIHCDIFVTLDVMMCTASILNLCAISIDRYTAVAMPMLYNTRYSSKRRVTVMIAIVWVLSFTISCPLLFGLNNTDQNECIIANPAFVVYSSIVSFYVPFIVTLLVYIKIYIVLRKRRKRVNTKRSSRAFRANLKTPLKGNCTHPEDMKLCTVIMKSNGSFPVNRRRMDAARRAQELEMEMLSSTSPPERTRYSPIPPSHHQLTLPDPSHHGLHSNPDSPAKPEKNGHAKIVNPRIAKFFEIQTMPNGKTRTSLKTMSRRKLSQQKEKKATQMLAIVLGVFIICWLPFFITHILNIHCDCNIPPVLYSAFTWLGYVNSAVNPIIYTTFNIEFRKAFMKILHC
experiment: Binding affinity at dopamine D2 receptor by [3H]spiperone displacement.
condition_details: read-out: IC50
Write down the numeric answer in nM and omit the unit.

molecule | IC50 [nM]
CN1CCC(=C2c3ccccc3C(O)c3ccccc32)CC1 (configuration not stated) | 1600

Q: Check the records and state IC50 for "O=C1NCCN1CCN1CC=C(c2cn(-c3ccc(F)cc3)c3ccccc23)CC1"
A: 5.1

###

Reported IC50 by item:
tgt: Serotonin 2 (5-HT2) receptor (Rattus norvegicus, UniProt P30994+P08909+P14842)
experiment: Binding affinity at serotonin 5-hydroxytryptamine 2 receptor by [3H]ketanserin displacement.
Assay type: protein assay
Write down the numeric answer in nM and omit the unit.

Record excerpt, results attached:
compound | IC50, nM
CN1CCC(=C2c3ccccc3C(O)c3ccccc32)CC1 (centres undefined) | 2.6
O=C1NCCN1CCN1CCN([C@@H]2C[C@@H](c3ccc(F)cc3)c3cc(Cl)ccc32)CC1 | 2.6
O=C1NCCN1CCN1CC=C(c2cn(-c3ccc(F)cc3)c3ccccc23)CC1 | 1.7

Now let's try a different one.
Q: Please tell me the measured IC50 for OCCN1CCN([C@@H]2C[C@@H](c3ccc(F)cc3)c3ccc(C(F)(F)F)cc32)CC1 [TEFLUDAZINE] ; system: Serotonin 2 (5-HT2) receptor (Rattus norvegicus, UniProt P30994+P08909+P14842).
A: 3.1

###

tgt: D(2) dopamine receptor (Rattus norvegicus, UniProt P61169)
experiment: Binding affinity at dopamine D2 receptor by [3H]spiperone displacement.
property: pKi
A value of pKi is the negative decimal logarithm of a concentration given in moles per litre.

Q: Check the records and state pKi for "CN1CCC(=C2c3ccccc3C=Cc3ccc(Br)cc32)CC1"
A: 8.40
